The origin of these recorded values is ChEMBL document CHEMBL1149757.

# CC50 at 168 h listing for each entry below
test details: Cytotoxicity against human […] cells after 7 days by MTT assay
Type: cell-based
Answer with a number only, understood to be in µM.

**Q:** Given the compound `CCN(CC)Cc1cccc(Nc2ccnc3cc(Cl)ccc23)c1` , what is its reported CC50 at 168 h?
**A:** 12.5

**Q:** Also, `CCN(CC)Cc1ccc(Nc2ccnc3cc(Cl)ccc23)cc1O` please.
**A:** 8

**Q:** // next record `CCN(CC)Cc1ccc(O)c(Nc2ccnc3cc(Cl)ccc23)c1`
**A:** 19

**Q:** Try the compound `CCN(CC)Cc1cc(Nc2ccnc3cc(Cl)ccc23)ccc1O.Cl`
**A:** 12

**Q:** Queued: `CCN(CC)Cc1cc(NCCN2CCCCC2)cc(Nc2ccnc3cc(Cl)ccc23)c1`
**A:** 4
